Test system: Leishmania donovani
Assay: In vitro antiprotozoal activity against L. d.
Format: cell-based
Conditions: read-out: L.d. C50
Measure name: pIC50
# reply with the number alone; pIC50 is -log10 of concentration in mol/L

Molecule	Target desc	Measure name	Quantitative readout
N=C(N)c1ccnc(-c2ccc(-c3ccc(-c4cc(C(=N)N)ccn4)[se]3)[se]2)c1 [Compound 29b]	Leishmania donovani	pIC50	4.70
Cl.N=C(N)c1ccc(-c2ccc(-c3ccc(-c4ccc(C(=N)N)cc4)o3)o2)cc1 [Compound 17, hydrochloride salt]	Leishmania donovani	pIC50	6.00

Read the next record carefully.
Task: Look up pIC50 of N=C(N)c1ccc(OCCCCCOc2ccc(C(=N)N)cc2)cc1 [Pentamidine, reference compound] and report it.
Result: 5.70

---

Listed compounds paired with reported log10 IC50
Tested on: Plasmodium falciparum
Assay: In vitro antiprotozoal activity against P. f.
Assay type: cell-based
Details: Plasmodium falciparum
Quick note: numbers are log10 of IC50, with nM as the unit.

Task: Provide the reported log10 IC50 (system: Plasmodium falciparum) for N=C(N)c1ccc(-c2ccc(-c3ccc(C(=N)N)o3)o2)cc1 [Compound 8]
Result: 1.62

Task: Provide the reported log10 IC50 (system: Plasmodium falciparum) for N=C(N)c1ccc(-c2ccc(-c3ccc(-c4ccc(C(=N)N)cn4)o3)o2)nc1 [Compound 22]
Result: 1.46

Task: Provide the reported log10 IC50 (system: Plasmodium falciparum) for N=C(N)c1ccnc(-c2ccc(-c3ccc(-c4cc(C(=N)N)ccn4)[se]3)[se]2)c1 [Compound 29b]
Result: 1.88

Task: Provide the reported log10 IC50 (system: Plasmodium falciparum) for N=C(N)c1ccnc(-c2ccc(-c3ccc(-c4cc(C(=N)N)ccn4)s3)s2)c1 [Compound 26b]
Result: 1.53

Task: Provide the reported log10 IC50 (system: Plasmodium falciparum) for N/C(=N\O)c1ccc(-c2ccc(-c3ccc(-c4ccc(/C(N)=N\O)cc4)o3)o2)cc1 [Compound 16]
Result: 3.47

---

Where a name gives a salt, the structure may show the parent alone.
Listed molecules paired with reported melting point

Molecule	Measure name	Result
N=C(N)c1ccc(-c2ccc(-c3ccc(-c4ccc(C(=N)N)cc4)s3)s2)cc1 [Compound 26a]	melting point	> 300 °C

Task: Look up melting point of N=C(NO)c1ccc(-c2ccc(-c3ccc(C(=N)NO)o3)o2)nc1 [Compound 13] and report it.
Result: 248 to 250 °C

Task: Look up melting point of N=C(N)c1ccc(-c2ccc(-c3ccc(-c4ccc(C(=N)N)cn4)o3)o2)nc1 (as salt: salt) [Compound 22] and report it.
Result: > 300 °C

Task: Look up melting point of N=C(N)c1ccc(-c2ccc(-c3ccc(-c4ccc(C(=N)N)cc4)[se]3)[se]2)cc1 [Compound 29a] and report it.
Result: > 300 °C

Task: Look up melting point of N=C(N)c1ccnc(-c2ccc(-c3ccc(-c4cc(C(=N)N)ccn4)[se]3)[se]2)c1 [Compound 29b] and report it.
Result: > 300 °C

Task: Look up melting point of N=C(N)c1ccnc(-c2ccc(-c3ccc(-c4cc(C(=N)N)ccn4)s3)s2)c1 [Compound 26b] and report it.
Result: > 300 °C

---

Tested on: Trypanosoma brucei rhodesiense
Test: In vitro antiprotozoal activity against T. b. r.
Type: cell-based
Listed compounds paired with reported pIC50
# reply with the number alone; pIC50 is -log10 of concentration in mol/L

Compound	pIC50
N=C(N)c1ccc(-c2ccc(-c3ccc(-c4ccc(C(=N)N)cc4)s3)s2)cc1 [Compound 26a]	7.82

Task: Provide the reported pIC50 (system: Trypanosoma brucei rhodesiense) for N=C(N)c1ccc(-c2ccc(-c3ccc(-c4ccc(C(=N)N)cc4)[se]3)[se]2)cc1 [Compound 29a]
Result: 7.59

---

Tested on: Trypanosoma brucei rhodesiense
Assay: In vitro antiprotozoal activity against T. b. r.
Assay type: cell-based
Conditions: Trypanosoma brucei, RHODESIENSE
Measure name: pIC50
# reply with the number alone; pIC50 is -log10 of concentration in mol/L

// known answers, use as guide
Molecule	Quantitative readout
N=C(N)c1ccnc(-c2ccc(-c3ccc(-c4cc(C(=N)N)ccn4)[se]3)[se]2)c1 [Compound 29b]	6.82
N=C(N)c1ccc(-c2ccc(-c3ccc(-c4ccc(C(=N)N)cn4)o3)o2)nc1	7.15

Read the next record carefully.
Task: Provide the reported pIC50 (system: Trypanosoma brucei rhodesiense) for N=C(N)c1ccnc(-c2ccc(-c3ccc(-c4cc(C(=N)N)ccn4)s3)s2)c1 [Compound 26b]
Result: 7.44

---

Listed compounds paired with reported pIC50
Test system: Plasmodium falciparum
Assay: In vitro antiprotozoal activity against P. f.
Assay type: cell-based
Settings: Plasmodium falciparum
Protocol: In vitro antiprotozoal activities were measured following established protocols. […] E., et al., Bioorg.
pIC50: −log10 of the molar value.

Compound	pIC50
N=C(N)c1ccc(-c2ccc(-c3ccc(-c4ccc(C(=N)N)cc4)s3)s2)cc1 [Compound 26a]	≥ 7.66
Cl.N=C(N)c1ccc(-c2ccc(-c3ccc(-c4ccc(C(=N)N)cc4)o3)o2)cc1 [Compound 17, hydrochloride salt]	≥ 7.66
N=C(N)c1ccc(-c2ccc(-c3ccc(-c4ccc(C(=N)N)cc4)[se]3)[se]2)cc1 [Compound 29a]	≥ 7.66

Task: Look up pIC50 of `CONC(=N)c1ccc(-c2ccc(-c3ccc(-c4ccc(C(=N)NOC)cc4)o3)o2)cc1` and report it.
Result: < 5.13

Origin of measurements: patent US7517893B2
